Test: Antiinvasive activity in human CL1-5 cells assessed as cellular migration after 24 hrs by fluorescence assay relative to control
Type: functional
Set-up: concentration or dose not given beside the values
Measured Activity of individual entries
Hi, when you answer, please include the unit after the number. Thanks!

                                   compound  result
0  CCOC(=O)CNC(=O)C(=O)C(COCc1ccccc1)NC(=O)[C@H](CC1CCCCC1)NC(=O)N1CCOCC1 (stereo partly drawn)     51%
1  CCOC(=O)CNC(=O)C(=O)C(COCc1ccccc1)NC(=O)[C@H](CC1CCCCC1)NC(=O)c1cccc([N+](=O)[O-])c1 (stereo partly drawn)     67%
2  CCOC(=O)CNC(=O)C(=O)C(COCc1ccccc1)NC(=O)[C@H](CC1CCCCC1)NC(=O)c1cc(OC)ccc1[N+](=O)[O-] (stereo partly drawn)     95%

Problem: Could you share which Activity value was measured for "CCOC(=O)CNC(=O)C(=O)[C@H](COCc1ccccc1)NC(=O)[C@H](CC1CCCCC1)NC(=O)c1cc(F)ccc1F" ?
Result: 48%

Problem: For the compound shown here, CCOC(=O)CNC(=O)C(=O)C(COCc1ccccc1)NC(=O)[C@H](CC1CCCCC1)NC(=O)c1cc(Cl)cc([N+](=O)[O-])c1 (stereo partly drawn) , give the reported Activity.
Result: 80%

Problem: Look at this compound and give its reported Activity. "CCOC(=O)CNC(=O)C(=O)[C@H](COCc1ccccc1)NC(=O)[C@H](CC(C)C)NC(=O)c1cccc2c1C(=O)c1ccccc1-2"
Result: 50%

Problem: For CCOC(=O)CNC(=O)C(=O)C(COCc1ccccc1)NC(=O)[C@H](CC1CCCCC1)NC(=O)c1ccc(Br)o1 (stereo partly drawn) , what is its reported Activity?
Result: 80%

Problem: Can you share its Activity? I mean this compound: CCOC(=O)CNC(=O)C(=O)C(COCc1ccccc1)NC(=O)[C@H](CC1CCCCC1)NC(=O)c1ccc([N+](=O)[O-])s1 (stereo partly drawn)
Result: 64%

Problem: Name the recorded Activity for CCOC(=O)CNC(=O)C(=O)C(COCc1ccccc1)NC(=O)[C@H](CC1CCCCC1)NC(=O)c1ccc(C(=O)OC)c(N)c1 (stereo partly drawn) .
Result: 53%

Problem: Look up Activity: CCOC(=O)CNC(=O)C(=O)C(COCc1ccccc1)NC(=O)[C@H](CC1CCCCC1)NC(=O)c1ccc(Cl)c(NC(=O)OC(C)(C)C)c1 (stereo partly drawn)
Result: 50%

Problem: Activity for CCOC(=O)CNC(=O)C(=O)C(COCc1ccccc1)NC(=O)[C@H](CC1CCCCC1)NC(=O)/C=C/c1cc(OC)ccc1OC (stereo partly drawn) ?
Result: 81%

Problem: // lookup Activity for "CCOC(=O)CNC(=O)C(=O)[C@H](COCc1ccccc1)NC(=O)[C@H](CC1CCCCC1)NC(=O)c1cc(Br)ccc1N"
Result: 52%

Problem: What value of measured Activity is listed for CCOC(=O)CNC(=O)C(=O)C(COCc1ccccc1)NC(=O)[C@H](CC1CCCCC1)NC(=O)c1ccc(Cl)c(N)c1 (stereo partly drawn) ?
Result: 68%

Problem: Activity for CCOC(=O)CNC(=O)C(=O)C(COCc1ccccc1)NC(=O)[C@H](CC1CCCCC1)NC(=O)c1ccc(OC(C)=O)cc1 (stereo partly drawn) ?
Result: 69%

Problem: Give its Activity value. Item: CCOC(=O)CNC(=O)C(=O)C(COCc1ccccc1)NC(=O)[C@H](CC1CCCCC1)NC(=O)C1=CC(=O)CC(C)(C)O1 (stereo partly drawn)
Result: 98%

Problem: Return reported Activity; argument: CCOC(=O)CNC(=O)C(=O)C(COCc1ccccc1)NC(=O)[C@H](CC1CCCCC1)NC(=O)Cc1cccs1 (stereo partly drawn)
Result: 67%

Problem: Please look up its Activity: CCOC(=O)CNC(=O)C(=O)C(COCc1ccccc1)NC(=O)[C@H](CC1CCCCC1)NC(=O)c1cccc(F)c1F (stereo partly drawn)
Result: 115%

Problem: What value of measured Activity is listed for CCCCCC1OC(=O)C(C(=O)N[C@@H](CC2CCCCC2)C(=O)NC(COCc2ccccc2)C(=O)C(=O)NCC(=O)OC)=CC1C (stereo partly drawn) ?
Result: 119%
